Below are IC50 values measured for Adenosine receptor A1 (Bos taurus, UniProt P28190).
Numbers only, in nM.

Sample records with IC50:
Cn1c(=O)c2[nH]c(-c3ccccc3F)nc2n(C)c1=O :: 12.5
CCn1c(=O)c2nc(-c3ccc(S(=O)(=O)NCCN(C)C)cc3)[nH]c2n(CC)c1=O :: 3.3
C=CCn1c(=O)c2nc(-c3ccc(S(=O)(=O)O)cc3)[nH]c2n(CC=C)c1=O :: 1140

Query: What value of IC50 has been reported for the following compound? CCn1c(=O)c2[nH]c(-c3ccc(S(=O)(=O)N4CCOCC4)cc3)nc2n(CC)c1=O
Response: 13
